Value source: patent US20070092551A1

System: mature adipocytes (3T3-L1 cells)
Assay: Enhancing action on glucose uptake (2-deoxyglucose) into mature adipocytes
Assay type: cell-based
Conditions: Mus musculus, 3T3-L1; 30 μM; X=(S−N)/(P−N) of 2-deoxyglucose uptake, P=insulin 1 μg/mL; read-out: Enhancing Action on Glucose Uptake
activation at 30 µM values for the molecules below.

molecule	activation at 30 µM
CC(=O)Oc1ccc(/C=C/C(=O)c2ccc(OC(C)=O)c(C/C=C(\C)CCC=C(C)C)c2OC(C)=O)cc1 [Compound (C061), 4,2′,4′-triacetoxy-3′-geranylchalcone]	30 to 60%
COc1ccc(C(C)=O)c(O)c1Cc1ccccc1 [Compound (C055)]	60 to 100%
O=C(/C=C/c1ccc(Cl)cc1)c1ccccc1OCc1ccccc1 [Compound (C066), 4-chloro-2′-benzyloxychalcone]	60 to 100%
CCOC(C)(C)C(O)CC/C(C)=C/Cc1c(O)ccc(C(=O)/C=C/c2ccc(O)cc2)c1O (centres unmarked) [TB6]	30 to 60%
COc1ccc(C(=O)/C=C/c2ccc(O)c(O)c2)c(O)c1CC=C(C)C [Compound (C031)]	> 100%
CC(=O)c1ccc(OC2CCCCO2)c(C/C=C(\C)CCC=C(C)C)c1O (centres unmarked) [Compound (C045)]	30 to 60%
C=C(C)C(CC/C(C)=C/Cc1c(OC)ccc(C(=O)/C=C/c2ccc(O)cc2)c1O)OO (centres unmarked) [TB9]	30 to 60%
CC(C)=CCC/C(C)=C/Cc1c(O)ccc(C(=O)/C=C/c2ccc(Cl)cc2)c1O [Compound (C074)]	30 to 60%

* * *

System: mature adipocytes (3T3-L1 cells)
Experiment: Enhancing action on glucose uptake (2-deoxyglucose) into mature adipocytes
Format: cell-based
Conditions: Mus musculus, 3T3-L1; 30 μM; X=(S−N)/(P−N) of 2-deoxyglucose uptake, P=insulin 1 μg/mL; read-out: Enhancing Action on Glucose Uptake
readout-type: activation at 30 µM

> print(dat)
                                   molecule         readout.type      result
1  COc1ccc(C(=O)/C=C/c2cccc([N+](=O)[O-])c2)c(O)c1CC=C(C)C  activation at 30 µM      > 100%
2  COc1ccc(C(=O)CCc2ccc(O)cc2)c(O)c1CCC(C)C  activation at 30 µM  60 to 100%
3             COc1ccc(C(C)=O)c(O)c1CC=C(C)C  activation at 30 µM   30 to 60%
4  C/C=C(/C)C(=O)OC1C(O)c2c(ccc3ccc(=O)oc23)OC1(C)C (centres unmarked)  activation at 30 µM   30 to 60%
5  COc1ccc(/C=C/C(=O)c2ccc(OC)c(CC=C(C)C)c2O)c(O)c1CC=C(C)C  activation at 30 µM   30 to 60%
6            CCOc1ccc(C(C)=O)c(O)c1CC=C(C)C  activation at 30 µM      > 100%
7  COc1ccc(/C=C/C(=O)c2c(OC)cc(OC)c(CC=C(C)C)c2O)cc1  activation at 30 µM      > 100%
8  COc1ccc(C(=O)/C=C/c2ccc(O)cc2)c(O)c1C/C=C(\C)CC/C=C(\C)CCC=C(C)C  activation at 30 µM      > 100%

* * *

Test system: mature adipocytes (3T3-L1 cells)
Test: Enhancing action on glucose uptake (2-deoxyglucose) into mature adipocytes
Type: cell-based
Conditions: Mus musculus, 3T3-L1; 30 μM; X=(S−N)/(P−N) of 2-deoxyglucose uptake, P=insulin 1 μg/mL; read-out: Enhancing Action on Glucose Uptake
readout-type: activation at 30 µM

molecule	result
CC(C)=CCC/C(C)=C/Cc1c(O)ccc(C(=O)/C=C/c2ccc(O)cc2)c1O [Xanthoangelol, 4,2′,4′-Trihydroxy-3′-geranylchalcone]	> 100%
CCOc1ccc(C(C)=O)c(O)c1C/C=C(\C)CCC=C(C)C	> 100%
CC(=O)c1ccc(OCC=C(C)C)cc1C	30 to 60%
COc1ccc(C=O)c(O)c1 [2-Hydroxy-4-methoxybenzaldehyde]	30 to 60%
CC(C)=CCC/C(C)=C/CC/C(C)=C/Cc1c(O)ccc(C(=O)/C=C/c2ccc(O)cc2)c1O [Compound (C058), 4,2′,4′-trihydroxy-3′-farnesylchalcone]	> 100%
COc1ccc(C(=O)/C=C/c2ccc(O)cc2)c(O)c1 [Compound (C020), 4,2′-dihydroxy-4′-methoxychalcone]	60 to 100%
CCCCC1OC(=O)C2=CCCCC21 (centres unmarked) [Sedanolide]	60 to 100%
COc1cc(O)c(C(C)=O)cc1CC=C(C)C	30 to 60%

* * *

activation at 30 µM values for the compounds below.
Test system: mature adipocytes (3T3-L1 cells)
Experiment: Enhancing action on glucose uptake (2-deoxyglucose) into mature adipocytes
Format: cell-based
Conditions: Mus musculus, 3T3-L1; 30 μM; X=(S−N)/(P−N) of 2-deoxyglucose uptake, P=insulin 1 μg/mL; read-out: Enhancing Action on Glucose Uptake
readout-type: activation at 30 µM

> print(dat)
                                    compound         readout.type      result
 1  O=C(/C=C/c1ccc(O)c(O)c1)c1ccccc1O [Compound (C005), 3,4,2′-trihydroxychalcone]  activation at 30 µM   30 to 60%
 2                O=C(/C=C/c1ccccc1)c1ccccc1  activation at 30 µM   30 to 60%
 3  O=C(/C=C/c1ccc(O)cc1)c1ccc(O)c(Cc2ccccc2)c1O [Compound (C057), 4,2′,4′-trihydroxy-3′-benzylchalcone]  activation at 30 µM      > 100%
 4  COc1ccc(C(=O)/C=C/c2ccc(O)cc2)c(O)c1Cc1ccccc1  activation at 30 µM      > 100%
 5              COc1ccc(C(C)=O)c(O)c1CCC(C)C  activation at 30 µM      > 100%
 6  C/C=C(/C)C(=O)OC1c2c(ccc3ccc(=O)oc23)OC(C)(C)C1OC(C)=O (centres unmarked)  activation at 30 µM      > 100%
 7  CC(C)=CCc1c(O)ccc(C(=O)/C=C/c2ccc(O)cc2)c1O  activation at 30 µM      > 100%
 8  CC(=O)c1ccc(OC2CCCCO2)c(CC=C(C)C)c1O (centres unmarked)  activation at 30 µM      > 100%
 9  COc1ccc(C(=O)/C=C/c2ccc(O)cc2)c(O)c1C/C=C(\C)C/C=C/C(C)(C)OO  activation at 30 µM  60 to 100%
10   COc1ccc(C(C)=O)c(O)c1C/C=C(\C)CCC=C(C)C  activation at 30 µM  60 to 100%
11  COc1ccc(C(=O)/C=C/c2ccc(O)cc2)c(OCc2ccccc2)c1CC=C(C)C  activation at 30 µM   30 to 60%
12  COc1ccc(C(=O)/C=C/c2ccc(Cl)cc2)c(OC(C)=O)c1C/C=C(\C)CCC=C(C)C  activation at 30 µM  60 to 100%
13  COc1ccc(C(=O)/C=C/c2ccc(O)cc2)c(O)c1CC1C2(C)CCC(O2)C1(C)C (centres unmarked)  activation at 30 µM      > 100%
14  COc1ccc(C(=O)/C=C/c2ccc(OC(C)=O)cc2)c(OC(C)=O)c1C/C=C(\C)CCC=C(C)C  activation at 30 µM      > 100%
15  COc1ccc(C(=O)/C=C/c2ccc(O)cc2)c(O)c1C/C=C(\C)CCC=C(C)C  activation at 30 µM      > 100%
16  COc1ccc(C(=O)/C=C/c2ccc(Cl)cc2)c(OC(C)=O)c1CC=C(C)C  activation at 30 µM      > 100%
17  COc1ccc(C(=O)/C=C/c2ccc(OC(C)=O)cc2)c(O)c1CC=C(C)C  activation at 30 µM      > 100%

* * *

Tested on: mature adipocytes (3T3-L1 cells)
Test: Enhancing action on glucose uptake (2-deoxyglucose) into mature adipocytes
Type: cell-based
Conditions: Mus musculus, 3T3-L1; 30 μM; X=(S−N)/(P−N) of 2-deoxyglucose uptake, P=insulin 1 μg/mL; read-out: Enhancing Action on Glucose Uptake
Procedure: The induction of differentation into nature adipocytes was carried out by partially modifying the above-mentioned method of Rubin C. […] As the evaluation of the enhancing action on glucose uptake, and also as the evaluation of the insulin-mimetic action, the amount of 2-deoxyglucose uptake into mature adipocytes during the stimulation of the test compound in the adipocytes was determined. […]
activation at 30 µM values for the molecules below.

molecule	activation at 30 µM
O=C(/C=C/c1ccc(O)c(O)c1)c1ccc(Cl)cc1Cl [Compound (C011), 3,4-dihydroxy-2′,4′-dichlorochalcone]	> 100%
CC(C)=CCCC1(C)C=Cc2c(ccc(C(=O)/C=C/c3ccc(O)cc3)c2O)O1 (stereo not shown)	60 to 100%
COc1ccc(C(=O)/C=C/c2ccco2)c(O)c1CC=C(C)C	60 to 100%
COc1ccc(C(=O)/C=C/c2ccc(OC3CCCCO3)cc2)c(O)c1CC=C(C)C (stereo not shown)	> 100%
CC(=O)c1cc(CC=C(C)C)c(O)cc1O [Compound (C025), 2′,4′-dihydroxy-5′-prenylacetophenone]	30 to 60%
C/C=C(/C)C(=O)OC1Cc2c(ccc3ccc(=O)oc23)OC1(C)C (stereo not shown) [Coumarin Compound B, 3′-angeloyloxy-3′,4′-dihydroseselin]	> 100%
COc1ccc(C(=O)/C=C/c2ccc(O)cc2)c2c1CC(O)C(C)(C)O2 (stereo not shown)	30 to 60%
COc1ccc(C(=O)/C=C/c2ccc(O)cc2)c(OC(C)=O)c1C/C=C(\C)CCC=C(C)C	> 100%
COc1ccc(/C=C/C(=O)c2ccc(OC)c(CC=C(C)C)c2O)cc1	60 to 100%
COc1ccc(C(=O)/C=C/c2ccc(OC(C)=O)cc2)c(OC(C)=O)c1CC=C(C)C	> 100%
CC(C)=CCc1c(O)ccc(C(=O)/C=C/c2ccc(Cl)cc2)c1O	30 to 60%
COc1ccc(C(C)=O)c(O)c1C/C=C(\C)CC/C=C(\C)CCC=C(C)C	30 to 60%
COc1ccc2c(c1CC=C(C)C)OC(c1ccco1)C(=Cc1ccco1)C2=O (stereo not shown)	30 to 60%
COc1cc(O)c(C(=O)/C=C/c2ccc(O)cc2)cc1CC=C(C)C	> 100%
CCOc1ccc(C(=O)/C=C/c2ccc(O)cc2)c(O)c1CC=C(C)C	> 100%
COc1ccc(C(=O)/C=C/C=C/c2ccccc2)c(O)c1CC=C(C)C	> 100%
